test: A qHTS for Small Molecule Inhibitors of Shiga Toxin; settings: Vero cells, Shiga toxin protein synthesis inhibition reporter; at 38.7 µM, stronger effect = higher value
The campaign covered roughly 290,000 compounds. About 27,000 (9.3%) were called active. This is one part of a sample in which actives are shown more often than they occur.
Kindly return met if reported inhibition is no lower than 20%; return not met if it is lower.

INSERT INTO measurements (compound, classification) VALUES
  ('CCOC(=O)C1CCCN(CCSc2ccc(C)cc2)C1 (stereo unspecified)', 'met'),
  ('O=C(O)CC/C(=C\c1cc2c(cc1Br)OCO2)c1nc2ccccc2s1', 'not met');

# bool: inhibition of Cc1cccc(N2CCN(Cc3nc(C4CC4)no3)CC2)n1 >= 20%
not met

Say whether Clc1cccc(Cl)c1OCCOCCNCc1ccccc1 shows inhibition of 20% or more.
not met

Quick check, inhibition >= 20%? Cc1ccc(-c2nc(CS(=O)(=O)CC(=O)NCc3ccc4c(c3)OCO4)c(C)o2)cc1
not met

Does inhibition meet or surpass 20% for Cn1cnnc1SCc1nnc(-c2ccccc2Br)o1 ?
met

---

assay: A qHTS for Small Molecule Inhibitors of Shiga Toxin; conditions: Vero cells, Shiga toxin protein synthesis inhibition reporter; at 38.7 µM
Screen size: about 290,000 compounds; about 27,000 (9.3%) were called active. Cut-off read from the data, not from the text of the source: active = inhibition mostly above about 28% (no sharp cut-off); inactive = mostly below about 43%. The entries come from a sample that favours actives as a whole.
Assign a class; possible classes are Yes (active), No (inactive)

INSERT INTO results (compound, classification) VALUES
  ('COc1ccc(N2CCN(C(=O)CSc3nc4cc(OC)c(OC)cc4cc3C#N)CC2)cc1', 'No');

Could you please tell me the result logged for O=C(Nc1ccc(Cl)c(Cl)c1)c1ccccc1NC(=O)C1CC=CCC1C(=O)O (stereo unspecified) in this assay?
Yes

Entry O=C(O)C1CC=CCC1C(=O)Nc1ccccc1C(=O)N1CCN(c2ccccc2)CC1 (stereo unspecified) : call = ?
No

// param item: O=C(O)C1CC=CCC1C(=O)NCCc1ccccc1 (stereo unspecified) ; yields the recorded call
No

Give the logged outcome of this assay for the following compound: O=CN1CCN(C(=O)c2ccc(Br)o2)CC1
No

---

assay: A qHTS for Small Molecule Inhibitors of Shiga Toxin; details: Vero cells, Shiga toxin protein synthesis inhibition reporter; at 38.7 µM, stronger effect = higher value
Screen size: about 290,000 compounds; about 27,000 (9.3%) were called active. Shown is part of a subset that was picked to be rich in actives.
Threshold rule: inhibition greater than or equal to 10% is yes; below that, no.

INSERT INTO assay_data (compound, classification) VALUES
  ('CN(CC(=O)NCc1ccc(Cl)cc1)S(=O)(=O)c1cccs1', 'yes'),
  ('O=C(CC(=O)N/N=C\c1ccc(F)cc1)NCCc1ccccc1', 'yes'),
  ('Nc1nc(NC(=O)/C=C/c2ccccc2)nn1-c1ccccc1', 'yes'),
  ('CC(=O)NCCC(=O)Nc1nc(C)c(Cc2ccc3c(c2)OCO3)s1', 'yes');

Reported inhibition at or above 10%? CC(C)(C)NC(=O)CN(Cc1cccs1)C(=O)CNS(=O)(=O)c1ccccc1
yes

Is inhibition at least 10%? Consider O=C(NCc1cccc(C(F)(F)F)c1)c1cccc(S(=O)(=O)N2CCN(Cc3ccccc3)CC2)c1
no

Check the entry CC1CC(C)CN(C(=O)CCNC(=O)Cn2cnc3ccccc3c2=O)C1 (configuration not stated) : does inhibition equal or exceed 10%?
no

Answer whether inhibition of O=C(NCCCO)c1cc2c([nH]c3ccccc32)c(-c2ccc(F)cc2)n1 is greater than or equal to 10%.
no

Does COc1ccc(C(=O)/C=C/c2ccc(-c3ccccc3)cc2)cc1CSCC(=O)O have a reported inhibition of at least 10%?
no

Has COc1nnc(-c2ccc(C)c(S(=O)(=O)N(C)C)c2)c2ccccc12 a recorded inhibition greater than or equal to 10%?
yes

For this compound, is measured inhibition 10% or higher? COc1cc(OC)c(OC)cc1CN1CCN(C(=O)c2cccc3ccccc23)CC1
no

Hi team, for COc1ccc(COC(=O)c2n[nH]c3ccccc23)cc1F , is the recorded inhibition at or above 10%?
yes

Given O=C(Nc1nc(-c2ccc3c(c2)OCO3)cs1)c1ccncc1 , state whether its inhibition is at least 10%.
yes

Dear colleague, could you confirm whether O=C(COC(=O)c1n[nH]c2ccccc12)NCc1ccccc1 has inhibition at or above 10%?
no

Evaluate Cc1ccc(C(=O)NC2CC(C)(C)NC(C)(C)C2)c(C)c1 : inhibition at minimum 10%?
no

# bool: inhibition of O=C(Nc1cccc(OC(=O)N2CCCCC2)c1)N1CCOCC1 >= 10%
no

Threshold query (inhibition >= 10%) on Cc1ccc(S(=O)(=O)Nc2nc(N)n(-c3ccccc3)n2)cc1
no

Determine whether measured inhibition meets or exceeds 10% for CC1CCC(NC(=O)C2c3ccccc3C(=O)N2Cc2ccc3c(c2)OCO3)CC1 (configuration not stated)
yes

Check if inhibition >= 10% (inclusive). Item: NC(=O)COC(=O)c1ccc2c(c1)C(=O)N(Cc1ccco1)C2=O
no

Quick check: does O=C(NCCc1ccc(F)cc1)c1n[nH]c2ccccc12 have inhibition greater than or equal to 10%?
yes

Would you say COc1cccc(CNC(=O)Cc2csc(Nc3nc(=S)[nH]c4ccccc34)n2)c1 shows inhibition at minimum 10%?
no
